From: paper doi:10.1101/2021.10.07.463234v2

- test.system: SARS-CoV-2 Mac1 (Severe acute respiratory syndrome coronavirus 2, UniProt P0DTD1)
- test.summary: biochemical
- experimental.conditions: 100 µM; inhibitor
Structures can show the parent of a compound that is named as a salt.

compound | reading.unit | %inhibition
Fc1ccc([C@@H]2CCNC[C@H]2COc2ccc3c(c2)OCO3)cc1 [Paroxetine HCl] | % | 28.69
CC1(C)S[C@@H]2[C@H](NC(=O)[C@H](N)c3ccccc3)C(=O)N2[C@H]1C(=O)O [Ampicillin Trihydrate] | % | 20.11
CN(CCOc1ccc(CC2SC(=O)NC2=O)cc1)c1ccccn1 (centres unmarked) [Rosiglitazone] | % | 18.44
CCNC(=O)[C@@H]1CCCN1C(=O)[C@H](CCCNC(=N)N)NC(=O)[C@H](CC(C)C)NC(=O)[C@@H](CC(C)C)NC(=O)[C@H](Cc1ccc(O)cc1)NC(=O)[C@H](CO)NC(=O)[C@H](Cc1c[nH]c2ccccc12)NC(=O)[C@H](Cc1c[nH]cn1)NC(=O)[C@@H]1CCC(=O)N1 [Leuprorelin Acetate] | % | 6.662
Cc1cc(C2CCCCC2)n(O)c(=O)c1 | % | 12.57
NC[C@H]1O[C@H](O[C@H]2[C@H](O)[C@@H](O[C@H]3O[C@H](CO)[C@@H](O)[C@H](N)[C@H]3O)[C@H](N)C[C@@H]2N)[C@H](N)C[C@@H]1O [Tobramycin] | % | 0
CCOCCn1c(N2CCCN(C)CC2)nc2ccccc21 [Emedastine Difumarate] | % | 0.198
CC(=O)NS(=O)(=O)c1ccc(N)cc1 [Sulfacetamide] | % | 27.01
CCCC(CCC)C(=O)O [Valproic acid sodium salt (Sodium valproate)] | % | 16.22
O=c1sn(-c2cccc3ccccc23)c(=O)n1Cc1ccccc1 | % | 42.74
Cc1cn([C@H]2C[C@H](N=[N+]=[N-])[C@@H](CO)O2)c(=O)[nH]c1=O | % | 8.703
Nc1ccn([C@@H]2O[C@H](CO)[C@@H](O)C2(F)F)c(=O)n1 [Gemcitabine] | % | 32.55
Cc1cc(C)nc(NS(=O)(=O)c2ccc(N)cc2)n1 [Sulfamethazine] | % | 0
CC[C@H]1OC(=O)C[C@@H](O)[C@H](C)[C@@H](O[C@@H]2O[C@H](C)[C@@H](O)[C@H](N(C)C)[C@H]2O)[C@@H](CCN2C[C@H](C)C[C@H](C)C2)C[C@@H](C)C(=O)/C=C/C(C)=C/[C@@H]1CO[C@@H]1O[C@H](C)[C@@H](O)[C@@H](OC)[C@H]1OC [Tilmicosin phosphate] | % | 0

====

Recorded inhibition at 100 µM, one value per entry.
- test.system: UniProt P0DTD1
- test.summary: biochemical
- experimental.conditions: read-out: %inhibition
Counter-ions that a name gives are not always drawn. Bridge positions count the residues as written; N and C are the ends. Peptide text beside a SMILES is read from it.

compound | test.system | inhibition at 100 µM / %
NCCCC(N)(C(=O)O)C(F)F (centres unmarked) [Eflornithine hydrochloride hydrate] | UniProt P0DTD1 | 0
CC[C@H]1[C@@H](O)[C@@H]2[C@H](CC[C@]3(C)[C@@H]([C@H](C)CCC(=O)O)CC[C@@H]23)[C@@]2(C)CC[C@@H](O)C[C@@H]12 | UniProt P0DTD1 | 37.3
CCNC(=O)[C@@H]1CCCN1C(=O)[C@H](CCCN=C(N)N)NC(=O)[C@H](CC(C)C)NC(=O)[C@@H](C)NC(=O)[C@H](Cc1ccc(O)cc1)NC(=O)[C@H](CO)NC(=O)[C@H](Cc1c[nH]c2ccccc12)NC(=O)[C@H](Cc1cnc[nH]1)NC(=O)[C@@H]1CCC(=O)N1 [Alarelin Acetate] | UniProt P0DTD1 | 0.14
CN1C[C@@H]2c3ccccc3Oc3ccc(Cl)cc3[C@H]2C1 (racemic) [Asenapine maleate] | UniProt P0DTD1 | 0
O=P1(NCCCl)OCCCN1CCCl (centres unmarked) [Ifosfamide] | UniProt P0DTD1 | 10.6
C[C@H](Nc1ncnc2nc[nH]c12)c1cc2cccc(Cl)c2c(=O)n1-c1ccccc1 | UniProt P0DTD1 | 2.52
Cn1ncc(Cl)c1-c1cc(C(=O)N[C@H](CN)Cc2cccc(F)c2)sc1Cl | UniProt P0DTD1 | 0
CN(C)C(=O)Oc1ccc[n+](C)c1 [Pyridostigmine Bromide] | UniProt P0DTD1 | 0
CC(=O)N[C@H]1[C@H]([C@H](O)[C@H](O)CO)OC(C(=O)O)=C[C@@H]1NC(=N)N | UniProt P0DTD1 | 0
NS(=O)(=O)Cc1noc2ccccc12 [Zonisamide] | UniProt P0DTD1 | 0
O=C(O)CCc1nc(-c2ccccc2)c(-c2ccccc2)o1 | UniProt P0DTD1 | 11.8
Cc1ccc(C(=O)C(C)CN2CCCCC2)cc1 (centres unmarked) [Tolperisone HCl] | UniProt P0DTD1 | 8.81
NC(=O)[C@@H]1CC[C@@H]2CN1C(=O)N2OS(=O)(=O)O [Avibactam sodium] | UniProt P0DTD1 | 0
O=C(O)c1cc(-c2ccc(F)cc2F)ccc1O | UniProt P0DTD1 | 0.967
NC(=O)c1nc(F)cnc1O | UniProt P0DTD1 | 0.111
CCCCC[C@](C)(O)/C=C/[C@@H]1[C@@H](C/C=C\CCCC(=O)O)[C@@H](O)C[C@H]1O | UniProt P0DTD1 | 17.6
O=C(O)CCC(=O)c1ccc(-c2ccccc2)cc1 | UniProt P0DTD1 | 0
CC(C)=CCC/C(C)=C/CC/C(C)=C/CSc1ccccc1C(=O)O | UniProt P0DTD1 | 0
CC(=O)[C@H]1CC[C@H]2[C@@H]3CCC4=CC(=O)CC[C@]4(C)[C@H]3CC[C@]12C | UniProt P0DTD1 | 1.73
CC(=O)N[C@@H](CCC(N)=O)C(=O)O [Aceglutamide] | UniProt P0DTD1 | 0
NCCS(=O)(=O)O | UniProt P0DTD1 | 0
O=c1[nH]c(=O)n([C@H]2C[C@H](O)[C@@H](CO)O2)cc1/C=C/Br | UniProt P0DTD1 | 17.8
O=C(O)C(O)[C@H](O)[C@@H](O)[C@H](O)[C@H](O)CO (some centres unmarked) [Calcium Gluceptate] | UniProt P0DTD1 | 0
CCCC(C(=O)OCCN(CC)CC)(c1ccccc1)c1ccccc1 [Proadifen HCl] | UniProt P0DTD1 | 15.2
Cc1c(-c2ccnn2C)cc(C(=O)NCc2ccc(S(C)(=O)=O)cn2)c(=O)n1-c1cccc(C(F)(F)F)c1 | UniProt P0DTD1 | 0
NC(=O)c1cn(Cc2c(F)cccc2F)nn1 [Rufinamide] | UniProt P0DTD1 | 25.2
CC1=C(/C=C/C(C)=C/C=C/C(C)=C/C(=O)O)C(C)(C)CCC1 | UniProt P0DTD1 | 0
Cn1cc(CNCC2CCN(c3ncc(C(=O)NO)cn3)CC2)c2ccccc21 [Quisinostat (JNJ-26481585) 2HCl] | UniProt P0DTD1 | 0
c1ccc2[nH]c(-c3cscn3)nc2c1 | UniProt P0DTD1 | 21.5
Brc1c(NC2=NCCN2)ccc2nccnc12 [Brimonidine Tartrate] | UniProt P0DTD1 | 19.3
NCCCC[C@H](NC(=O)[C@@H]1CCCN1C(=O)[C@@H]1CSSC[C@H](NC(=O)CNC(=O)CNC(=O)CN)C(=O)N[C@@H](Cc2ccc(O)cc2)C(=O)N[C@@H](Cc2ccccc2)C(=O)N[C@@H](CCC(N)=O)C(=O)N[C@@H](CC(N)=O)C(=O)N1)C(=O)NCC(N)=O [Terlipressin Acetate] (H-GGGCYFQNCPKG-NH2; disulfide 4-9) | UniProt P0DTD1 | 0
CN(C)[C@@H](CCOc1cccc2ccccc12)c1ccccc1 [Dapoxetine HCl] | UniProt P0DTD1 | 35.7

====

- test.system: SARS-CoV-2 Mac1 (Severe acute respiratory syndrome coronavirus 2, UniProt P0DTD1)
- test.summary: biochemical
- experimental.conditions: read-out: %inhibition
Threshold check on inhibition at 100 µM: at or above 10% gives Condition met, strictly below gives Condition not met.

compound | label.class
C=CC1=C(C(=O)O)N2C(=O)[C@@H](NC(=O)/C(=N\OCC(=O)O)c3csc(N)n3)[C@H]2SC1 | Condition not met
NCCCNCCSP(=O)(O)O | Condition not met
CC(=O)Nc1c(I)c(NC(C)=O)c(I)c(C(=O)O)c1I [Diatrizoate sodium] | Condition not met
CC(C)=CCOc1ccc(/C=C/C(=O)c2ccc(OCC=C(C)C)cc2OCC(=O)O)cc1 | Condition met
C[C@@H]1CN(c2c(F)c(N)c3c(=O)c(C(=O)O)cn(C4CC4)c3c2F)C[C@H](C)N1 | Condition met
CC(C)(CO)C(O)C(=O)NCCCO (racemic) | Condition not met
O=C(NCCN1CCOCC1)c1ccc(Cl)cc1 [Moclobemide (Ro 111163)] | Condition not met
CN[C@H]1C(=O)N[C@@H]2Cc3ccc(cc3)Oc3cc4cc(c3O[C@@H]3O[C@H](C(=O)O)[C@@H](O)[C@H](O)[C@H]3NC(=O)CCCCCCCCC(C)C)Oc3ccc(cc3Cl)[C@@H](O)[C@@H]3NC(=O)[C@H](NC(=O)[C@@H]4NC(=O)[C@@H](NC2=O)c2cc(cc(O)c2Cl)Oc2cc1ccc2O)c1ccc(O)c(c1)-c1c(O[C@H]2O[C@H](CO)[C@@H](O)[C@H](O)[C@@H]2O)cc(O)cc1[C@@H](C(=O)NCCCN(C)C)NC3=O | Condition met
Cn1nnc2c(C(N)=O)ncn2c1=O [Temozolomide] | Condition met
CCCCC(CC)COC(=O)C(C#N)=C(c1ccccc1)c1ccccc1 (centres unmarked) | Condition not met
CC[C@H]1OC(=O)[C@H](C)[C@@H](O[C@H]2C[C@@](C)(OC)[C@@H](O)[C@H](C)O2)[C@H](C)[C@@H](O[C@@H]2O[C@H](C)C[C@H](N(C)C)[C@H]2O)[C@](C)(OC)C[C@@H](C)C(=O)[C@H](C)[C@@H](O)[C@]1(C)O | Condition met
